- System: SR leukemia
- assayText: NCI-60 one-dose screen, 48 h
- conditionInfo: 10 µM unless noted
The panel holds about 83,000 compounds, 20% with a hit somewhere; the sample as a whole holds those more often. Active and inactive are the calls of the source. The calls were made as follows: active = growth percent below 10; inactive = the rest.
Classes used: y for active, n for inactive

INSERT INTO assay_data (compound, experimentaltarget, answerlabel) VALUES
  ('CCn1cc(Cc2cc(C(=O)Nc3cc4cc(OC)c(OC)cc4c(C)n3)ccc2Cl)cn1', 'SR leukemia', 'n'),
  ('C=C1C(=O)O[C@H]2[C@H]1CC/C(COC(=O)C(=O)c1c[nH]c3ccc(Cl)cc13)=C\CC[C@@]1(C)O[C@@H]21', 'SR leukemia', 'y'),
  ('O=CCCCOCc1ccccc1', 'SR leukemia', 'n'),
  ('COC(=O)/C=C1/SC(=Nc2ccc(F)cc2)N(CCc2c[nH]c3ccc(O)cc23)C1=O', 'SR leukemia', 'y'),
  ('N=C(N)c1ccc(-c2ccc(-c3ccccc3)o2)o1', 'SR leukemia', 'y'),
  ('Nc1cc(Br)cc2c1[nH]c(=O)c1ccccc12', 'SR leukemia', 'n'),
  ('CCC(C)(C)c1ccc(Nc2ccc(Nc3ccc(C(C)(C)CC)cc3)cc2)cc1', 'SR leukemia', 'n'),
  ('COC(=O)Cn1c2c(c3c(OC)cccc31)C(=O)c1ccccc1-2', 'SR leukemia', 'n'),
  ('O=C(/C=C/c1cccc(Oc2ccccc2)c1)c1ccc(Nc2nc(Nc3ccc(F)cc3)nc(Nc3ccc(Cl)cc3)n2)cc1', 'SR leukemia', 'y'),
  ('Cc1ccc2nc(-c3ccc(C(=O)N/N=C/c4ccc([N+](=O)[O-])cc4)cc3)[nH]c2c1', 'SR leukemia', 'n'),
  ('CC1(C)CC(=O)C2=C(C1)C(c1ccc(Cl)cc1)n1ncc(C#N)c1N2 (configuration not stated)', 'SR leukemia', 'n'),
  ('COc1cc(C=C2C(=O)NC(=S)NC2=O)cc(CN2CCCC2)c1O', 'SR leukemia', 'n'),
  ('O=S(=O)(NCCNc1nccc(-c2c(-c3ccc(F)c(O)c3)nc3sccn23)n1)c1ccc(Cl)cc1', 'SR leukemia', 'y'),
  ('COC1C(O)CC(OC2CC(OC3CC(O[C@@H]4C(=O)c5c(cc6cc(OC7CC(OC8CC(O)C(O)C(C)O8)C(O)C(C)O7)c(C)c(O)c6c5O)CC4[C@H](OC)C(=O)C(C)=O)OC(C)C3O)OC(C)C2O)OC1C (some centres not stated)', 'SR leukemia', 'y'),
  ('CCOC(=O)c1c(NC(=O)c2ccccc2)sc2c3c(ccc12)OCN(C)C3', 'SR leukemia', 'y'),
  ('C/C(=N\Nc1ccccc1)c1ccc(NC2=CC(=O)c3ccccc3C2=O)cc1', 'SR leukemia', 'n'),
  ('Cc1cccc(NC(=O)N/C(N)=N/c2nc3ccccc3s2)c1', 'SR leukemia', 'n'),
  ('Cc1ccc(S(=O)(=O)OC[C@]23CCC(C)(C)C[C@H]2C2=CC[C@@H]4[C@@]5(C)CCCNC(C)(C)[C@@H]5CC[C@@]4(C)[C@]2(C)CC3)cc1', 'SR leukemia', 'y'),
  ('N#Cc1nn(-c2cc(=O)[nH]c3ccc(Br)cc23)c(N)c1C#N', 'SR leukemia', 'y'),
  ('COc1cc(/C=C/C(=O)N2CCN(C(=O)c3cc(OC)c(OC)c(OC)c3)CC2)ccc1OCCCOc1cc2c(cc1OC)C(=O)N1CCC[C@H]1C=N2', 'SR leukemia', 'y'),
  ('Cc1cc(=O)n(C(=S)Nc2ccc(Cl)cc2)c2cc(O)ccc12', 'SR leukemia', 'n'),
  ('C=C1C(=O)O[C@H]2[C@H]1CC/C(COC(=O)/C=C\C(=O)NCc1ccc(Cn3c(=O)sn(CCCCl)c3=O)cc1)=C\CC[C@@]1(C)O[C@@H]21', 'SR leukemia', 'n'),
  ('COc1ccc(C2[C@@H](c3ccccc3)C(=O)N2c2cc(OC)c(OC)c(OC)c2)cc1F (some centres not stated)', 'SR leukemia', 'y'),
  ('CCOC(=O)C/C(=N\Nc1cc(=O)[nH]c2ccc(C)cc12)C(=O)OCC', 'SR leukemia', 'n'),
  ('CCOC(=O)c1cnn(CC(C)O)c1NC(=O)NCc1ccccc1C(F)(F)F (configuration not stated)', 'SR leukemia', 'n'),
  ('c1ccc(-c2nc3ccccc3[nH]2)c(OCCCCCOc2ccccc2-c2nc3ccccc3[nH]2)c1', 'SR leukemia', 'y'),
  ('Cc1c2ccccc2nc2cc3c(cc12)[C@H]1CC[C@]2(C)C(=O)CC[C@H]2[C@@H]1CC3', 'SR leukemia', 'n'),
  ('CN(C)C1CN(C(=O)c2cc(-c3ccc4ncnc(N5CCc6cc(F)c(Cl)cc65)c4c3)cnc2N)C1', 'SR leukemia', 'n'),
  ('CCOc1ccc(/C=C/C(=O)c2cccc(OCCCOc3cccc(C(=O)/C=C/c4ccc(OCC)cc4)c3)c2)cc1', 'SR leukemia', 'n'),
  ('Cc1nc2ccccc2c(/C=C/c2ccc(F)cc2)c1C(=O)/C=C/c1ccccc1', 'SR leukemia', 'y'),
  ('COC(=O)c1ccc2cc(OC)c(OC)cc2c1', 'SR leukemia', 'n'),
  ('Fc1cc2[nH]ncc2c2c3c(c(-c4cn[nH]c4C(F)(F)F)nc12)CCCC3', 'SR leukemia', 'y'),
  ('CCN(CCNc1ccc(C)c2sc3cc(Cl)ccc3c(=O)c12)CC(C)(C)O', 'SR leukemia', 'n'),
  ('CCOC(=O)CNC1=C(Cl)C(=O)N(Cc2ccc(Cl)cc2)C1=O', 'SR leukemia', 'n'),
  ('Oc1c(I)cc(I)cc1CN(Cc1ccccn1)Cc1ccccn1', 'SR leukemia', 'y'),
  ('C(=C(\C1=NCCN1)n1ccc2ccccc21)/c1ccccc1', 'SR leukemia', 'n'),
  ('C#COc1cccc(Nc2ncnc3cc(NC(=O)[C@H](C)Cl)ccc23)c1', 'SR leukemia', 'n');
